Experiment: Multiple-ascending dose
Assay type: in vivo, human
Conditions: both, human, plasma, oral, 100 mg, Cmax, Day 7, 100 mg b.i.d.; geometric mean (95% CI)
MEASUREMENT_TYPE: Cmax (ng/mL)
Entry rule: numbers only, all in ng/mL.

I'd like to know its Cmax. The compound in question is `CCCCCN1C[C@H](O)[C@@H](O)[C@H](O)[C@@H]1CO`
1270

* * *

Experiment: Multiple-ascending dose
Assay type: in vivo, human
Conditions: both, human, plasma, oral, 100 mg, Cmax, Day 1, 100 mg b.i.d.; geometric mean (95% CI)
MEASUREMENT_TYPE: Cmax
Remember to quote the unit after the number.

Reported Cmax, compound `CCCCCN1C[C@H](O)[C@@H](O)[C@H](O)[C@@H]1CO` : ____
1340 ng/mL

* * *

Experiment: Multiple-ascending dose
Type: in vivo, human
Settings: both, human, plasma, oral, 300 mg, Cmax, Day 1, 300 mg b.i.d.; geometric mean (95% CI)
MEASUREMENT_TYPE: Cmax (ng/mL)
Kindly provide the numeric value in ng/mL only, without the unit symbol.

Fill blank: measured Cmax of the molecule `CCCCCN1C[C@H](O)[C@@H](O)[C@H](O)[C@@H]1CO` is ____.
3760

* * *

Experiment: Multiple-ascending dose
Format: in vivo, human
Settings: both, human, plasma, oral, 1000 mg b.i.d.
MEASUREMENT_TYPE: AUC (ng·h/mL)
Give the quantity in ng·h/mL, number only.

Consider the compound shown here: CCCCCN1C[C@H](O)[C@@H](O)[C@H](O)[C@@H]1CO [sinbaglustat] What is its recorded AUC?
51200

* * *

Assay: Multiple-ascending dose
Assay type: in vivo, human
Settings: both, human, plasma, oral, 30 mg, Cmax, Day 7, 30 mg b.i.d.; geometric mean (95% CI)
MEASUREMENT_TYPE: Cmax (ng/mL)
Unit ng/mL implied. Number only.

Can you share its Cmax? I mean this compound: `CCCCCN1C[C@H](O)[C@@H](O)[C@H](O)[C@@H]1CO`
413

* * *

Test: Single-ascending dose
Format: in vivo, human
Conditions: human, plasma, oral, 100 mg, Tmax, single dose 100 mg, fasted; median (range)
MEASUREMENT_TYPE: Tmax (h)
I only need the number, in h, no unit after it.

Item CCCCCN1C[C@H](O)[C@@H](O)[C@H](O)[C@@H]1CO [sinbaglustat] has what recorded Tmax?
1.4

* * *

Assay: Single-ascending dose
Assay type: in vivo, human
Settings: human, urine and plasma, oral, 300 mg
MEASUREMENT_TYPE: CL renal (mL/min)
Respond with the bare value in mL/min.

Dear colleague, I am looking for the recorded CL renal of the following compound: CCCCCN1C[C@H](O)[C@@H](O)[C@H](O)[C@@H]1CO [sinbaglustat]
225

* * *

Experiment: Multiple-ascending dose
Assay type: in vivo, human
Details: both, human, urine and plasma, oral, 1000 mg b.i.d.
MEASUREMENT_TYPE: CL renal (mL/min)
I only need the number, in mL/min, no unit after it.

Fill blank: measured CL renal of the compound `CCCCCN1C[C@H](O)[C@@H](O)[C@H](O)[C@@H]1CO` is ____.
148

* * *

Experiment: Multiple-ascending dose
Type: in vivo, human
Details: both, human, plasma, oral, 300 mg, Tmax, Day 7, 300 mg b.i.d.; median (range)
MEASUREMENT_TYPE: Tmax (min)
Supply the numeric figure in min, leaving out any unit text.

// returns reported Tmax for input `CCCCCN1C[C@H](O)[C@@H](O)[C@H](O)[C@@H]1CO`
54

* * *

Test: Multiple-ascending dose
Assay type: in vivo, human
Conditions: both, human, plasma, oral, 30 mg
MEASUREMENT_TYPE: AUC (ng·h/mL)
Form entry: value (ng·h/mL) — number only.

Look up AUC for this compound: `CCCCCN1C[C@H](O)[C@@H](O)[C@H](O)[C@@H]1CO`
1310

* * *

Experiment: Single-ascending dose
Type: in vivo, human
Conditions: male, human, plasma, oral, Tmax, across single doses 10 to 2,000 mg
MEASUREMENT_TYPE: Tmax

Please report the recorded Tmax for `CCCCCN1C[C@H](O)[C@@H](O)[C@H](O)[C@@H]1CO` .
0.9 to 2 h

* * *

Experiment: Multiple-ascending dose
Type: in vivo, human
Conditions: both, human, plasma, oral, 1000 mg b.i.d.
MEASUREMENT_TYPE: half-life (h)
Give just the number in h; leave the unit off.

Sample CCCCCN1C[C@H](O)[C@@H](O)[C@H](O)[C@@H]1CO [sinbaglustat] — what was its half-life?
14.7

* * *

Test: Multiple-ascending dose
Type: in vivo, human
Details: both, human, plasma, oral, 30 mg, Tmax, Day 7, 30 mg b.i.d.; median (range)
MEASUREMENT_TYPE: Tmax (min)
Form entry: value (min) — number only.

Which Tmax is reported for this compound? `CCCCCN1C[C@H](O)[C@@H](O)[C@H](O)[C@@H]1CO`
54

* * *

Assay: Multiple-ascending dose
Assay type: in vivo, human
Conditions: both, human, plasma, oral, 1000 mg b.i.d., Cmax, Day 7, 1,000 mg b.i.d.; geometric mean (95% CI)
MEASUREMENT_TYPE: Cmax (ng/mL)
Express it in ng/mL; write the number only.

Need Cmax of `CCCCCN1C[C@H](O)[C@@H](O)[C@H](O)[C@@H]1CO` , thanks.
10400

* * *

Assay: Multiple-ascending dose
Assay type: in vivo, human
Conditions: both, human, urine and plasma, oral, 100 mg
MEASUREMENT_TYPE: CL renal
# output: number + unit

Name the recorded CL renal for CCCCCN1C[C@H](O)[C@@H](O)[C@H](O)[C@@H]1CO [sinbaglustat] .
192 mL/min

* * *

Test: Multiple-ascending dose
Format: in vivo, human
Conditions: both, human, plasma, oral, 300 mg, Tmax, Day 1, 300 mg b.i.d.; median (range)
MEASUREMENT_TYPE: Tmax (h)
Provide only the numeric value, understood in h.

# Tmax lookup, item `CCCCCN1C[C@H](O)[C@@H](O)[C@H](O)[C@@H]1CO`
1.4

* * *

Assay: Single-ascending dose
Format: in vivo, human
Details: human, plasma, oral, 300 mg, Tmax, single dose 300 mg fed; median (range)
MEASUREMENT_TYPE: Tmax (h)
Entry rule: numbers only, all in h.

Fill in: Tmax of `CCCCCN1C[C@H](O)[C@@H](O)[C@H](O)[C@@H]1CO` is ___
2.25

* * *

Experiment: Multiple-ascending dose
Type: in vivo, human
Settings: both, human, plasma, oral, 100 mg
MEASUREMENT_TYPE: AUC(0-t) (ng·h/mL)
Quick reminder: number only, in ng·h/mL, skip the unit.

AUC(0-t) for `CCCCCN1C[C@H](O)[C@@H](O)[C@H](O)[C@@H]1CO` ?
4480

* * *

Assay: Single-ascending dose
Format: in vivo, human
Details: male, human, plasma and urine, oral, 300 mg
MEASUREMENT_TYPE: CL renal (mL/min)
Return type: number; implicit unit mL/min.

What does the data say about its CL renal? Entry: `CCCCCN1C[C@H](O)[C@@H](O)[C@H](O)[C@@H]1CO`
225

* * *

Assay: Multiple-ascending dose
Assay type: in vivo, human
Conditions: both, human, plasma, oral, 1000 mg b.i.d., Tmax, Day 7, 1,000 mg b.i.d.; median (range)
MEASUREMENT_TYPE: Tmax (h)
# value in h; strip the unit string

For the compound `CCCCCN1C[C@H](O)[C@@H](O)[C@H](O)[C@@H]1CO` , what Tmax is on record?
2

* * *

Assay: Single-ascending dose
Format: in vivo, human
Conditions: human, plasma, oral, 300 mg, Tmax, single dose 300 mg fasted; median (range)
MEASUREMENT_TYPE: Tmax (min)
Answer with a number only, understood to be in min.

Could you tell me which Tmax is on file for `CCCCCN1C[C@H](O)[C@@H](O)[C@H](O)[C@@H]1CO` ?
54

* * *

Test: Single-ascending dose
Assay type: in vivo, human
Conditions: human, plasma, oral, 2000 mg, Tmax, single dose 2,000 mg, fasted; median (range)
MEASUREMENT_TYPE: Tmax
Note: a bare number is incomplete; add the unit.

Consider the compound shown here: `CCCCCN1C[C@H](O)[C@@H](O)[C@H](O)[C@@H]1CO` What is its recorded Tmax?
2 h

* * *

Experiment: Multiple-ascending dose
Assay type: in vivo, human
Conditions: both, human, plasma, oral, 100 mg
MEASUREMENT_TYPE: AUC (ng·h/mL)
Please state the figure in ng·h/mL; there is no need to write the unit.

Returns the measured AUC for the input compound. Input: `CCCCCN1C[C@H](O)[C@@H](O)[C@H](O)[C@@H]1CO`
4650

* * *

Assay: Single-ascending dose
Assay type: in vivo, human
Conditions: male, human, plasma, oral
MEASUREMENT_TYPE: half-life

Please look up its half-life: `CCCCCN1C[C@H](O)[C@@H](O)[C@H](O)[C@@H]1CO`
~12 h
